src = patent US20070270418A1

# targetSystem: MKK6 (Homo sapiens)
# Construct: purchased Upstate (Charlottesville, Va.)
# Sequence (P52564 1-334): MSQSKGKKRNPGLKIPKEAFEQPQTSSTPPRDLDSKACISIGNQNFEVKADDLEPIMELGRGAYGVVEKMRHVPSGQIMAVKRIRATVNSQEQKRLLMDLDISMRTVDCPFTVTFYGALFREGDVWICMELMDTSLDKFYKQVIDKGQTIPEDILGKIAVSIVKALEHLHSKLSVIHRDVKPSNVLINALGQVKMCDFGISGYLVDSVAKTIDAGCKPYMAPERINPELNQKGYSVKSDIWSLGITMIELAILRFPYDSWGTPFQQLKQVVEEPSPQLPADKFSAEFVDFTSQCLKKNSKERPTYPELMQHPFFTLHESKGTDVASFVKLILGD
# protocolDescription: Broad selectivity panel, 32P incorporation
# Format: biochemical
# measurementParameters: 0.1 μM compound, 40 μM ATP; read-out: Percent inhibition MKK6
reportedMetric: inhibition at 0.1 µM (%)
Your answer should be a plain number; it is taken to be in %.

Study these solved cases before continuing.
Fc1ccc(-c2nc3occn3c2-c2ccnc(N[C@H]3CN4CCC3CC4)n2)cc1; -4
CN(C)CC(C)(C)CNc1nccc(-c2c(-c3ccc(F)cc3)nc3occn23)n1; 1
Fc1ccc(-c2nc3occn3c2-c2ccnc(N[C@@H]3CN4CCC3CC4)n2)cc1; -5

Prompt: inhibition at 0.1 µM for `CC(=O)N1CCC(Nc2nccc(-c3c(-c4ccc(F)cc4)nc4occn34)n2)CC1` ?
Completion: 26

Prompt: inhibition at 0.1 µM for `CN1[C@@H]2CC[C@H]1C[C@@H](Nc1nccc(-c3c(-c4ccc(F)cc4)nc4occn34)n1)C2` ?
Completion: 19

Prompt: inhibition at 0.1 µM for `CS(=O)(=O)N1CCC(Nc2nccc(-c3c(-c4ccc(F)cc4)nc4occn34)n2)CC1` ?
Completion: 8

Prompt: inhibition at 0.1 µM for `Fc1ccc(-c2nc3occn3c2-c2ccnc(NC3CCNCC3)n2)cc1` ?
Completion: 0

----------
# targetSystem: InsR (Homo sapiens, UniProt P06213)
# Construct: purchased Upstate (Charlottesville, Va.)
# Sequence (P06213 28-1382, species assumed): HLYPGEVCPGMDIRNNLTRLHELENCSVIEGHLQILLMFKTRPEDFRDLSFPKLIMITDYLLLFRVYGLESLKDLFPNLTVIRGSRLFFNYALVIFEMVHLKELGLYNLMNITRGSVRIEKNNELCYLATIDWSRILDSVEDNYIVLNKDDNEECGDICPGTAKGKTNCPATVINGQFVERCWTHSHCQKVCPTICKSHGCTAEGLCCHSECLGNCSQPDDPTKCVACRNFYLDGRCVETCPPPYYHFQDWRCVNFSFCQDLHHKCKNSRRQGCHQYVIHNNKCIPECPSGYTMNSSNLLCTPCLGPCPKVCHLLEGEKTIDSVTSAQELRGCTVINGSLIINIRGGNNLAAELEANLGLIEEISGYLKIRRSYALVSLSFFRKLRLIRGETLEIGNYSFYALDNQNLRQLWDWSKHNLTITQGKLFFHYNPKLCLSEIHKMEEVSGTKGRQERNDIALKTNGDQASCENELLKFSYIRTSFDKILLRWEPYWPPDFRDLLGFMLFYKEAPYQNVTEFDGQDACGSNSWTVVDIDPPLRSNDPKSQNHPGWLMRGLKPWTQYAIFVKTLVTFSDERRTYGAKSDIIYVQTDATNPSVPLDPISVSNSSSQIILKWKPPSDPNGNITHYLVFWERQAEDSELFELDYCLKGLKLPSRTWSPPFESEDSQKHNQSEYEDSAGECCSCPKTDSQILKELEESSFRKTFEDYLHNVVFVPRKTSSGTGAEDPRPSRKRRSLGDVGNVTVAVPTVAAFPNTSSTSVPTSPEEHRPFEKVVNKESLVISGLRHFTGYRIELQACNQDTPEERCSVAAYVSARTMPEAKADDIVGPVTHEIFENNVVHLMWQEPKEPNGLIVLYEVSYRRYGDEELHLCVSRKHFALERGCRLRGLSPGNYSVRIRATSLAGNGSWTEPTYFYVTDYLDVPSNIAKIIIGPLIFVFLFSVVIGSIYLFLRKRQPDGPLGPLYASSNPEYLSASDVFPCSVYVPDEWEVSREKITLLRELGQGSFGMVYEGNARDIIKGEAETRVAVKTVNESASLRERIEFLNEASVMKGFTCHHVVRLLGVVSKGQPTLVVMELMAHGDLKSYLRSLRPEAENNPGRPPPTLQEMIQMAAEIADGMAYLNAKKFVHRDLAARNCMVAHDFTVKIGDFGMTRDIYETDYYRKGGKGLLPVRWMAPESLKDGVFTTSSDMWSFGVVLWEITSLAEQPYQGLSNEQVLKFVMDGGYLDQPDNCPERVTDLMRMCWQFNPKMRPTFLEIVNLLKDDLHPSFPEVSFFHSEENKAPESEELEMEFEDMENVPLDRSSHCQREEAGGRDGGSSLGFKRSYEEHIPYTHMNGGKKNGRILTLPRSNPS
# protocolDescription: Broad selectivity panel, 32P incorporation
# Format: biochemical
# measurementParameters: 1 μM compound, 40 μM ATP; read-out: Percent inhibition InsR
reportedMetric: inhibition at 1 µM (%)
Your answer should be a plain number; it is taken to be in %.

CS(=O)(=O)N1CCC(Nc2nccc(-c3c(-c4ccc(F)cc4)nc4occn34)n2)CC1; 2
Fc1ccc(-c2nc3occn3c2-c2ccnc(N[C@@H]3CN4CCC3CC4)n2)cc1; 12
CC(=O)N1CCC(Nc2nccc(-c3c(-c4ccc(F)cc4)nc4occn34)n2)CC1; -4

Prompt: inhibition at 1 µM for `CN(C)CC(C)(C)CNc1nccc(-c2c(-c3ccc(F)cc3)nc3occn23)n1` ?
Completion: 3

Prompt: inhibition at 1 µM for `CN1[C@@H]2CC[C@H]1C[C@@H](Nc1nccc(-c3c(-c4ccc(F)cc4)nc4occn34)n1)C2` ?
Completion: 14

Prompt: inhibition at 1 µM for `Fc1ccc(-c2nc3occn3c2-c2ccnc(N[C@H]3CN4CCC3CC4)n2)cc1` ?
Completion: 8

----------
// inhibition at 1 µM lookup, one value per entry
# targetSystem: JNK1α1 (Homo sapiens, UniProt P45983)
# Construct: purchased Upstate (Charlottesville, Va.)
# Sequence (P45983 1-384 isoform P45983-2, species assumed): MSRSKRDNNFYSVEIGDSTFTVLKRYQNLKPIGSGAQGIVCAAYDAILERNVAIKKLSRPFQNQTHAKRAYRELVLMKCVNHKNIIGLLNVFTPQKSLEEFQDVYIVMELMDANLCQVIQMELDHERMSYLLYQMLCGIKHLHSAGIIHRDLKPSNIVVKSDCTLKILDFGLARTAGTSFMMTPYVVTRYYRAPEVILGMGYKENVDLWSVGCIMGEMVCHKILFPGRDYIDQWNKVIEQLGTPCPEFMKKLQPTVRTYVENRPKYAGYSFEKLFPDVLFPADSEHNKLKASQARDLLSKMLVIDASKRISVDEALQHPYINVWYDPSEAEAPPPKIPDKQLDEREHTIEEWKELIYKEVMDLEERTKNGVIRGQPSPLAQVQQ
# protocolDescription: Broad selectivity panel, 32P incorporation
# Assay type: biochemical
# measurementParameters: 1 μM compound, 40 μM ATP; read-out: Percent inhibition JNK1α1
Your answer should be a plain number; it is taken to be in %.

Study these solved cases before continuing.
Fc1ccc(-c2nc3occn3c2-c2ccnc(N[C@H]3CN4CCC3CC4)n2)cc1; 0
CN(C)CC(C)(C)CNc1nccc(-c2c(-c3ccc(F)cc3)nc3occn23)n1; -18

Prompt: inhibition at 1 µM for `CC(=O)N1CCC(Nc2nccc(-c3c(-c4ccc(F)cc4)nc4occn34)n2)CC1` ?
Completion: 61

Prompt: inhibition at 1 µM for `Fc1ccc(-c2nc3occn3c2-c2ccnc(N[C@@H]3CN4CCC3CC4)n2)cc1` ?
Completion: 3

Prompt: inhibition at 1 µM for `Fc1ccc(-c2nc3occn3c2-c2ccnc(NC3CCNCC3)n2)cc1` ?
Completion: 18

Prompt: inhibition at 1 µM for `CS(=O)(=O)N1CCC(Nc2nccc(-c3c(-c4ccc(F)cc4)nc4occn34)n2)CC1` ?
Completion: 86

Prompt: inhibition at 1 µM for `CN1[C@@H]2CC[C@H]1C[C@@H](Nc1nccc(-c3c(-c4ccc(F)cc4)nc4occn34)n1)C2` ?
Completion: 6
